Data credit: PubChem BioAssay (NCATS)

experiment: Viability qHTS for spleen associated tyrosine kinase inhibitor (SYKi) naive MV4-11 cells (AID 1963823); conditions: MV4-11 AML viability, CellTiter-Glo luminescence, 72 h; series mostly up to 45 µM; note: nearly all actives have a fitted effect of over 40% in size
Records with an inconclusive call do not appear. Active and inactive are the calls of the source. Calls come from the whole dose curve; as a rule, active = well fitted cell-killing curve with a large enough effect; inconclusive = small, poorly fitted or top-dose-only effect, or effect the other way; inactive = no such curve, though single readings can be large or run the other way.
A correct response names exactly one class from active, inactive

query: I would be grateful if you could indicate the recorded call for CC(C)[C@]12O[C@H]1[C@@H]1O[C@]13[C@]1(O[C@H]1C[C@H]1C4=C(CC[C@@]13C)C(=O)OC4)[C@@H]2O .
result: active

query: I would be grateful if you could indicate the recorded call for C/C(=C\c1csc(C)n1)[C@@H]1C[C@@H]2O[C@]2(C)CCC[C@H](C)[C@H](O)[C@@H](C)C(=O)C(C)(C)[C@@H](O)CC(=O)O1 .
result: active

query: I would be grateful if you could indicate the recorded call for COc1ccc(N(C(=O)Oc2c(C)cccc2C)c2ccnc(Nc3ccc(N4CCN(C)CC4)cc3)n2)c(OC)c1 .
result: active

query: I would be grateful if you could indicate the recorded call for CNC(=O)N1N=C(c2ccc(N)cc2)c2cc3c(cc2CC1C)OCO3 (stereo not drawn) .
result: active

query: I would be grateful if you could indicate the recorded call for CNC(C)(C)Cc1ccccc1 .
result: inactive

query: I would be grateful if you could indicate the recorded call for C[C@@H]1O[C@@H](OC2CCC3(C=O)C(CCC4C3CCC3(C)C(C5=CC(=O)OC5)C(O)CC43O)C2)[C@H](O)[C@H](O)[C@H]1O[C@@H]1O[C@H](CO)[C@@H](O)[C@H](O)[C@H]1O (stereo partly drawn) .
result: active

query: I would be grateful if you could indicate the recorded call for C[C@@H]1Cc2c(Cl)cc(C(=O)N[C@@H](Cc3ccccc3)C(=O)O)c(O)c2C(=O)O1 .
result: active

query: I would be grateful if you could indicate the recorded call for CC(=O)NC1CCSC1=O (stereo not drawn) .
result: inactive

* * *

Assay: Viability qHTS for spleen associated tyrosine kinase inhibitor (SYKi) naive MV4-11 cells (AID 1963823); note: nearly all actives have a fitted effect of over 40% in size
Conditions: MV4-11 AML viability, CellTiter-Glo luminescence, 72 h; series mostly up to 45 µM
Method: Department of Medicine, Hematology/Oncology University Hospital Frankfurt, Germany. Trials have shown promising clinical activity of the selective SYK inhibitor entospletinib in patients with high expressing HOXA9/MEIS1 acute leukemias. […] 7; Detection; Luminescence; ViewLux plate reader (PerkinElmer). […] 1. Quantitative high-throughput screening (qHTS) of small molecule compounds was conducted on naive SYKi MV4-11 cell line. […] 7. Luminescence was measured on a ViewLux plate reader (PerkinElmer).
Inconclusive results are not listed. Calls of active or inactive are those of the source. Calls follow the shape of the dose curve; as a rule, active = well fitted cell-killing curve with a large enough effect; inconclusive = small, poorly fitted or top-dose-only effect, or effect the other way; inactive = no such curve, though single readings can be large or run the other way.
A correct response names exactly one class from active, inactive

query: I would be grateful if you could indicate the recorded call for COc1cc2cc(c1Cl)N(C)C(=O)C[C@H](OC(=O)C(C)C)[C@]1(C)O[C@@H]1[C@H](C)[C@@H]1C[C@@](O)(NC(=O)O1)[C@H](OC)/C=C/C=C(\C)C2 .
result: inactive

query: I would be grateful if you could indicate the recorded call for CCOC(=O)c1ncn2c1CN(C)C(=O)c1c(I)cccc1-2 .
result: inactive

query: I would be grateful if you could indicate the recorded call for CC(C)(C)c1cc(C(C)(C)C)c2c(c1)C(O)(C(F)(F)F)C(=O)O2 (stereo not drawn) .
result: inactive

query: I would be grateful if you could indicate the recorded call for COC1CC(O[C@H]2CC[C@]3(C)C4CC[C@]5(C)[C@@H](C6=CC(=O)OC6)[C@@H](OC(C)=O)C[C@]5(O)C4CC[C@@H]3C2)OC(C)C1O (stereo partly drawn) .
result: active

query: I would be grateful if you could indicate the recorded call for C=C1C[C@]2(O)[C@@]3(C)CCC(=O)C(C)(C)C3=C(O)C(=O)[C@@]2(C)[C@@H]2C(=O)O[C@@](C)(C(=O)OC)C(=O)[C@@]12C .
result: inactive

query: I would be grateful if you could indicate the recorded call for C#C[C@]1(O)CC[C@H]2[C@@H]3CC[C@H]4Cc5nc6nc7ccccc7n6cc5C[C@]4(C)[C@H]3CC[C@@]21C .
result: active

query: I would be grateful if you could indicate the recorded call for CCN(CC)CCOC(=O)C(O)(c1ccccc1)c1ccccc1 .
result: inactive

query: I would be grateful if you could indicate the recorded call for O=C(O)CNC(=O)C1C(=O)N(C2CCCCC2)C(=O)N(C2CCCCC2)C1=O .
result: inactive
